Data credit: patent US6054435A

Entries below carry reported MIC on Escherichia coli DC-2.

# smiles text, MIC
measured = [
    ("CC[C@H]1OC(=O)[C@H](C)C(=O)[C@H](C)[C@@H](O[C@@H]2O[C@H](C)C[C@H](N(C)C)[C@H]2O)[C@](C)(OCC#Cc2ccc(-c3ccc(C=O)o3)cc2)C[C@@H](C)C(=O)[C@H](C)[C@H]2NC(=O)O[C@@]21C", "> 100 µg/mL"),
    ("CC[C@H]1OC(=O)[C@H](C)C(=O)[C@H](C)[C@@H](O[C@@H]2O[C@H](C)C[C@H](N(C)C)[C@H]2O)[C@](C)(OC/C=C/c2ccc(-c3cccs3)s2)C[C@@H](C)C(=O)[C@H](C)[C@H]2NC(=O)O[C@@]21C", "> 100 µg/mL"),
]

// next item, MIC requested
Qu. Enter reported MIC observed with Escherichia coli DC-2 for CC[C@H]1OC(=O)[C@H](C)C(=O)[C@H](C)[C@@H](O[C@@H]2O[C@H](C)C[C@H](N(C)C)[C@H]2O)[C@](C)(OCC#Cc2ccc(-c3ccccc3)s2)C[C@@H](C)C(=O)[C@H](C)[C@H]2NC(=O)O[C@@]21C
Ans. > 100 µg/mL

----------
system: Micrococcus luteus ATCC 9341
MIC for assorted compounds
Please respond with the number in µg/mL and leave the unit unwritten.

Below, 2 compounds whose answers are already recorded.
# smiles text, unit annotation, experimental result
data = [
    ("CC[C@H]1OC(=O)[C@H](C)C(=O)[C@H](C)[C@@H](O[C@@H]2O[C@H](C)C[C@H](N(C)C)[C@H]2O)[C@](C)(OC/C=C/c2ccc3ncc(-c4ccco4)cc3c2)C[C@@H](C)C(=O)[C@H](C)[C@H]2NC(=O)O[C@@]21C", "µg/mL", 0.02),
    ("CC[C@H]1OC(=O)[C@H](C)C(=O)[C@H](C)[C@@H](O[C@@H]2O[C@H](C)C[C@H](N(C)C)[C@H]2O)[C@](C)(OC/C=C/c2cncc(Br)c2)C[C@@H](C)C(=O)[C@H](C)[C@H]2NC(=O)O[C@@]21C", "µg/mL", 0.02),
]

Okay, next one:
Qu. # query: MIC of entry CC[C@H]1OC(=O)[C@H](C)C(=O)[C@H](C)[C@@H](O[C@@H]2O[C@H](C)C[C@H](N(C)C)[C@H]2O)[C@](C)(OC/C=C/c2cnc(-c3cnccn3)s2)C[C@@H](C)C(=O)[C@H](C)[C@H]2NC(=O)O[C@@]21C
Ans. 0.01

----------
This section lists MIC readings for Escherichia coli DC-2.

Past entries and their recorded results:
# smiles text, experimental result
data = [
    ("CC[C@H]1OC(=O)[C@H](C)C(=O)[C@H](C)[C@@H](O[C@@H]2O[C@H](C)C[C@H](N(C)C)[C@H]2O)[C@](C)(OCC#Cc2ccc(-c3ccco3)s2)C[C@@H](C)C(=O)[C@H](C)[C@H]2NC(=O)O[C@@]21C", "50 µg/mL"),
    ("CC[C@H]1OC(=O)[C@H](C)C(=O)[C@H](C)[C@@H](O[C@@H]2O[C@H](C)C[C@H](N(C)C)[C@H]2O)[C@](C)(OCC#Cc2ccc(-c3cncc(C(N)=O)c3)s2)C[C@@H](C)C(=O)[C@H](C)[C@H]2NC(=O)O[C@@]21C", "50 µg/mL"),
]

Qu. Notebook entry, Escherichia coli DC-2 assay: MIC of CC[C@H]1OC(=O)[C@H](C)C(=O)[C@H](C)[C@@H](O[C@@H]2O[C@H](C)C[C@H](N(C)C)[C@H]2O)[C@](C)(OCC#Cc2ccc(-c3nccs3)s2)C[C@@H](C)C(=O)[C@H](C)[C@H]2NC(=O)O[C@@]21C = ?
Ans. 12.5 µg/mL

Qu. For the record CC[C@H]1OC(=O)[C@H](C)C(=O)[C@H](C)[C@@H](O[C@@H]2O[C@H](C)C[C@H](N(C)C)[C@H]2O)[C@](C)(OCC#Cc2ccc(-c3nccn3C)s2)C[C@@H](C)C(=O)[C@H](C)[C@H]2NC(=O)O[C@@]21C , what value of MIC is listed for Escherichia coli DC-2?
Ans. > 100 µg/mL

Qu. Give the reported MIC for CC[C@H]1OC(=O)[C@H](C)C(=O)[C@H](C)[C@@H](O[C@@H]2O[C@H](C)C[C@H](N(C)C)[C@H]2O)[C@](C)(OC/C=C/c2cncc(-c3ccccc3)c2)C[C@@H](C)C(=O)[C@H](C)[C@H]2NC(=O)O[C@@]21C (system: Escherichia coli DC-2).
Ans. 50 µg/mL
